System: UACC-257 melanoma
Experiment: NCI tumour cell line growth inhibition, 48 h
Hi there, I'd appreciate the recorded GI50 for every entry that follows.

## Task Look up and state reported GI50 for O=C(Nc1ccc(OS(=O)(=O)c2ccccc2)cc1)C12CC3CC(CC(C3)C1)C2
## Result 13.5 µM

## Task Look up and state reported GI50 for COc1ccc2c(c1)CCC1C2CC[C@@]2(C)C1CC1=CC(COC(C)=O)C3C(=O)c4ccccc4C(=O)C3C12 (stereo not given in full)
## Result > 100 µM

## Task Look up and state reported GI50 for COc1ccc(N(C)c2ncnc3occ(C)c23)cc1
## Result 29.6 µM

## Task Look up and state reported GI50 for C/C1=C\CC[C@@]2(C)O[C@@H]2[C@H]2OC(=O)[C@@H](CN(C)C)[C@@H]2CC1
## Result 12.8 µM

## Task Look up and state reported GI50 for CC/C(=C(/c1ccc(OCCN(C)C)cc1)c1ccc(OC(=O)CCCCC(=O)c2c(C)[nH]c(/C=C3\N=C(c4ccc[nH]4)C=C3OC)c2C)cc1)c1ccccc1
## Result 12 µM

====

Test system: MDA-MB-435
Experiment: NCI tumour cell line growth inhibition, 48 h
Hi there, I'd appreciate the recorded TGI for every entry that follows.

## Task Report TGI on MDA-MB-435 for this entry: CCC(C)(C)/C(CC(O)(C(F)(F)F)C(F)(F)F)=N\O
## Result > 100 µM

## Task Report TGI on MDA-MB-435 for this entry: CC(C)(C)OC(=O)NCC(O)CNC(=O)OC(C)(C)C
## Result > 100 µM

## Task Report TGI on MDA-MB-435 for this entry: CC(=O)c1c2c(cc3c1CC1(Cc4ccccc4C1=O)C3)CCC2 (stereo not given)
## Result 64 µM

## Task Report TGI on MDA-MB-435 for this entry: COC(=O)c1cc2c(cc1O)[C@@H](NC(C)=O)CCc1cc(OC)c(OC)c(OC)c1-2
## Result 1.23 µM

## Task Report TGI on MDA-MB-435 for this entry: C[C@H]1c2cccc(O)c2C(O)=C2C(=O)[C@]3(O)C(O)=C(C(N)=O)C(=O)[C@@H](N(C)C)[C@@H]3[C@@H](O)[C@@H]21
## Result 12.6 µM

## Task Report TGI on MDA-MB-435 for this entry: CCC(=O)NC(Nc1cccc(F)c1C)(C(F)(F)F)C(F)(F)F
## Result > 100 µM

## Task Report TGI on MDA-MB-435 for this entry: CC(C)c1ccc(Nc2ccc3c(OCCCN4CCN(C)CC4)cccc3n2)cc1
## Result 21.4 µM

## Task Report TGI on MDA-MB-435 for this entry: CC[N+](CC)(CCNCC(N)=O)CC(N)=O
## Result > 10 µM

## Task Report TGI on MDA-MB-435 for this entry: CCOC(=O)C1(Cc2ccc3c(c2)CCC3)Cc2cc3c(cc2C1)CCC3
## Result > 100 µM

## Task Report TGI on MDA-MB-435 for this entry: Cc1cc2nc3c(C#N)c(-c4ccccc4)cc(Nc4ccc(Cl)cc4)n3c2cc1C
## Result > 100 µM

====

Hi there, I'd appreciate the recorded TGI for every entry that follows.
Test system: M14 melanoma
Test: NCI tumour cell line growth inhibition, 48 h

## Task Look up and state reported TGI for Cc1ccc(S(=O)(=O)N/N=C/C(=C/c2ccc(Cl)cc2)CC(/C=N/NS(=O)(=O)c2ccc(C)cc2)=C\c2ccc(Cl)cc2)cc1
## Result 48.1 µM

## Task Look up and state reported TGI for CC(C)=C[C@@H]1C[C@H](C)[C@H]2CC[C@H](C)C3=C2[C@](O)(OC3=O)[C@]1(C)O
## Result > 100 µM

## Task Look up and state reported TGI for C/C(=C\CCc1ccoc1)CC/C=C(\C)CCCC1=CC(=O)OC1
## Result 45 µM

## Task Look up and state reported TGI for CS(=O)(=O)N/N=C/CN1C(=O)c2ccccc2C1=O
## Result > 100 µM

## Task Look up and state reported TGI for CCC(C)(C)/C(CC(O)(C(F)(F)F)C(F)(F)F)=N\O
## Result > 100 µM

## Task Look up and state reported TGI for CCn1c(-c2cc(OC)cc(OC)c2)nc2c1C(=O)c1ccccc1C2=O
## Result > 100 µM

## Task Look up and state reported TGI for CC(C)(C)c1cc(C(P(=O)(c2ccccc2)c2ccccc2)P(=O)(c2ccccc2)c2ccccc2)cc(C(C)(C)C)c1O
## Result 3.84 µM

## Task Look up and state reported TGI for C=C(C)C(CC=C(C)C)CC12CC(CC=C(C)C)C(C)(C)C(CC=C(C)C)(C(=O)C(Cc3ccc(O)c(O)c3)=C1O)C2=O (stereo unspecified)
## Result > 100 µM

## Task Look up and state reported TGI for O=C(/C=C/c1ccc(O)cc1)OC[C@@H](O)COC1OC(CO)C(O)C(O)C1O (stereo partly specified)
## Result > 100 µM

## Task Look up and state reported TGI for COC(=O)c1cc2c3ccccc3n(C(C)=O)c2cn1
## Result > 100 µM

## Task Look up and state reported TGI for O=C(O/N=C1/CCCC/C1=C\c1ccccc1)c1ccccc1
## Result > 100 µM

## Task Look up and state reported TGI for CC1OC2CC(=O)OC2C2=C1C(=O)c1c(O)cccc1C2=O (stereo unspecified)
## Result 0.193 µM

## Task Look up and state reported TGI for O/N=C1/COC(C(F)(F)F)(C(F)(F)F)C1
## Result > 100 µM

## Task Look up and state reported TGI for CC(=O)NC1C(OCc2ccccc2)OC(CO)C(O)C1OC(C)C(=O)NC(C)C(=O)NC(CCC(=O)NCCCNc1c2ccccc2nc2cccc([N+](=O)[O-])c12)C(N)=O (stereo unspecified)
## Result 3.97 µM

## Task Look up and state reported TGI for CN1C(=O)N/C(=C\c2ccc(S(=O)(=O)NN)cc2)C1=O
## Result > 100 µM

## Task Look up and state reported TGI for CC1CC(N)=Nc2ccccc2N1 (stereo unspecified)
## Result > 100 µM

## Task Look up and state reported TGI for COCCOCc1nc(C#N)c(N)o1
## Result > 100 µM

## Task Look up and state reported TGI for O=[N+]([O-])c1ccccc1S(=O)(=O)c1cc(Cl)cc2c1NCCC2
## Result > 100 µM

## Task Look up and state reported TGI for COc1cc(Nc2cn[nH]c2-c2ccc(Cl)cc2)cc(OC)c1OC
## Result 9.41 µM

## Task Look up and state reported TGI for C[As](C)SC1OC(CO)C(O)C1O (stereo unspecified)
## Result 0.767 µM

## Task Look up and state reported TGI for Cc1ccc(S(=O)(=O)NCC2CCCCC2=O)cc1 (stereo unspecified)
## Result > 100 µM

====

measurement_label: GI50

## Task Report GI50 on MDA-MB-435 for this entry: CC(C)c1ccc(Nc2ccc3c(OCCCN4CCN(C)CC4)cccc3n2)cc1
## Result 6620 nM

## Task Report GI50 on MDA-MB-435 for this entry: O=C1NC(=Nc2ccccc2)S/C1=C\c1ccc2ncccc2c1
## Result 620 nM

## Task Report GI50 on MDA-MB-435 for this entry: Cc1ccc(C(SCC(N)C(=O)O)(c2ccccc2)c2ccc(C)cc2)cc1 (stereo not given)
## Result 32.3 nM

## Task Report GI50 on MDA-MB-435 for this entry: O=C(OCc1ccc2cccc(O)c2n1)N1CCN(C(=O)c2cc3cc(F)ccc3[nH]2)CC1
## Result 1190 nM

## Task Report GI50 on MDA-MB-435 for this entry: COc1ccc2c(c1)CCC1C2CC[C@@]2(C)C1CC1=CC(COC(C)=O)C3C(=O)c4ccccc4C(=O)C3C12 (stereo not given in full)
## Result > 100000 nM

====

Tested on: ACHN renal
Assay: NCI tumour cell line growth inhibition, 48 h
Hi there, I'd appreciate the recorded log10 of TGI for every entry that follows.
Scale: log10; quantity: TGI; unit before log: µM

## Task Look up and state reported log10 of TGI for c1ccc2sc(C3(N4CCCC4)CCCCCC3)cc2c1
## Result 1.78

## Task Look up and state reported log10 of TGI for COc1ccc(OC)c(NC(=O)C(=O)NNC(=O)c2sc(NNC(C)=O)nc2C)c1
## Result 1.98

## Task Look up and state reported log10 of TGI for COc1ncnc(C2CC2)c1-c1ncc2cnn(Cc3ccc(-c4nc(C(F)(F)F)cn4C(C)C)cc3)c2n1
## Result 1.69

## Task Look up and state reported log10 of TGI for COc1ccc2nc3ccc(OC)cc3c(S(=O)CCCl)c2c1 (centres undefined)
## Result 0.56

## Task Look up and state reported log10 of TGI for O=S(=O)(Nc1cc(F)cc(Cl)c1)c1ccc(-c2cnc(C3CC3)o2)cc1
## Result 1.65

## Task Look up and state reported log10 of TGI for CCN(CC)c1c(N(CC)CC)c(=O)c1=O
## Result 1.32

## Task Look up and state reported log10 of TGI for CCN1CCN(c2ccc(Nc3cc(N(C)C(=O)Nc4c(Cl)c(OC)cc(OC)c4Cl)ncn3)cc2)CC1
## Result 1.13

## Task Look up and state reported log10 of TGI for C=C(C=O)C1CCC2(C(=O)O)CCC3(C)C(CCC4C5(C)CCC(O)C(C)(C)C5CCC43C)C12 (centres undefined)
## Result 0.51
